assay explanation: Viability assay, human primary hepatocytes, RT-glo, 48 h
Format: cell-based
protocol conditions: human, primary human hepatocytes, sheet Fig1 panel C (primary human hepatocytes), 48 h, 3.125 uM, replicates; read-out: viability, normalized to DMSO-treated controls
# viability at 48 h, 3.125 µM annotations

>  <compound>
CC#C[C@@H](CC(=O)O)c1ccc(OCC(C)=C(C)C)cc1 [CPL207280]

>  <viability at 48 h, 3.125 µM / %>
111

$$$$
>  <compound>
Cc1cc(OCCCS(C)(=O)=O)cc(C)c1-c1cccc(COc2ccc3c(c2)OC[C@H]3CC(=O)O)c1 [TAK-875, fasiglifam, reference compound]

>  <viability at 48 h, 3.125 µM / %>
113

$$$$
